Target: KAT-5 (Homo sapiens (Human))
Sequence (Q92993 other isoform, or with tags, fused parts or gaps): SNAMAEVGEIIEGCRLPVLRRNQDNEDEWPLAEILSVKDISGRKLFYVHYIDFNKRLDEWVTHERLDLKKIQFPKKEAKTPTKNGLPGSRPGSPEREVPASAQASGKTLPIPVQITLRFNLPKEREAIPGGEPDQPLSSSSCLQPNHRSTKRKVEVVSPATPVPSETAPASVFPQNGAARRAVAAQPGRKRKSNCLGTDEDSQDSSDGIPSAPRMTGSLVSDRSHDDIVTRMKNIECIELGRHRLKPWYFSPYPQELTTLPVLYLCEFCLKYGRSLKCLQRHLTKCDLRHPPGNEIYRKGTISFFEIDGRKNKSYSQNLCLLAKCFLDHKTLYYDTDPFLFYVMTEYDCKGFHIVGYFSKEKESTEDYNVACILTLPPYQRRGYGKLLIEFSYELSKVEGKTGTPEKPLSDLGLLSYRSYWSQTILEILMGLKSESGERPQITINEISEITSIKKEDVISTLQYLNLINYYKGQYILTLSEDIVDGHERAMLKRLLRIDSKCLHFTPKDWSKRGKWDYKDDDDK
Assay: KAT-5 biochemical inhibition assay (SAMDI mass spectrometry)
Details: Table 5
measurement-type: IC50

# compound, result
records = [
    ("Cc1cccc(-c2cc(Cl)c(F)c(C(=O)NNS(=O)(=O)C3CCC(N)C3)c2)c1 (stereo not drawn) [Compound A-20]", "> 100 µM"),
    ("CNCCCS(=O)(=O)NNC(=O)c1cc(-c2cccc(C)c2)cc(Cl)c1F [Compound A-27]", "> 100 µM"),
]

Please supply the value of reported IC50 for the item Cc1cc(-c2cccc(F)c2)cc(C(=O)NNS(=O)(=O)c2cccc(O)c2)c1F [Compound A-28]
≤ 1 µM

Name the recorded IC50 of the compound listed here: O=C(NNS(=O)(=O)c1cccc(O)c1)c1cc(-c2ccccc2)cc(F)c1F [Compound A-29]
≤ 10 µM

Tell me its IC50 given Cc1cccc(-c2cc(Cl)c(F)c(C(=O)NNS(=O)(=O)CC3CN(C)CCO3)c2)c1 (stereo not drawn) [Compound A-11] as the entry.
≤ 10 µM

Return IC50 (reported value) for this compound: Cc1cccc(-c2cc(Cl)c(F)c(C(=O)NNS(=O)(=O)CC3CN(C)CCN3)c2)c1 (stereo not drawn) [Compound A-24]
50 to 100 µM

Please supply the value of reported IC50 for the item Cc1cccc(-c2cc(Cl)c(F)c(C(=O)NNS(=O)(=O)CC3CN(C(=O)OC(C)(C)C)CCN3C(=O)OC(C)(C)C)c2)c1 (stereo not drawn) [Compound A-14]
> 100 µM

State its IC50 for this compound: Cc1cccc(-c2cc(Cl)c(F)c(C(=O)NNS(=O)(=O)CC3CN(C)CCN3C)c2)c1 (stereo not drawn) [Compound A-17]
> 100 µM

Tell us which IC50 value is on record for Cc1cccc(-c2cc(Cl)c(F)c(C(=O)NNS(=O)(=O)CCCN(C)Cc3ccccc3)c2)c1 [Compound A-18]
> 100 µM

Consider the compound Cc1cccc(-c2cc(Cl)c(F)c(C(=O)NNS(=O)(=O)CC3CNCCN3)c2)c1 (stereo not drawn) [Compound A-15] . State its measured IC50.
> 100 µM

Find the measured IC50 of Cc1cccc(-c2cc(Cl)c(F)c(C(=O)NNS(=O)(=O)CC3CCCCN(C(=O)OC(C)(C)C)C3)c2)c1 (stereo not drawn) [Compound A-22] and report it.
10 to 50 µM

Please report IC50 for the following compound: Cc1cccc(-c2cc(Cl)c(F)c(C(=O)NNS(=O)(=O)CC3CNC3)c2)c1 [Compound A-13]
> 100 µM

Determine from records and report IC50 for Cc1cccc(-c2cc(Cl)c(F)c(C(=O)NNS(=O)(=O)CC3CCCCNC3)c2)c1 (stereo not drawn) [Compound A-21]
> 100 µM

Give me measured IC50, please, for this compound: CNCCCS(=O)(=O)NNC(=O)c1cc(-c2cccc(C)c2)ccc1F [Compound A-26]
> 100 µM

Fill in reported IC50 for this entry: COc1cccc(S(=O)(=O)NNC(=O)c2cc(-c3ccccc3)cc(Cl)c2F)c1 [Compound A-16]
≤ 10 µM

---

Target: KAT-8 (Homo sapiens (Human), UniProt Q9H7Z6)
Sequence (Q9H7Z6 other isoform, or with tags, fused parts or gaps): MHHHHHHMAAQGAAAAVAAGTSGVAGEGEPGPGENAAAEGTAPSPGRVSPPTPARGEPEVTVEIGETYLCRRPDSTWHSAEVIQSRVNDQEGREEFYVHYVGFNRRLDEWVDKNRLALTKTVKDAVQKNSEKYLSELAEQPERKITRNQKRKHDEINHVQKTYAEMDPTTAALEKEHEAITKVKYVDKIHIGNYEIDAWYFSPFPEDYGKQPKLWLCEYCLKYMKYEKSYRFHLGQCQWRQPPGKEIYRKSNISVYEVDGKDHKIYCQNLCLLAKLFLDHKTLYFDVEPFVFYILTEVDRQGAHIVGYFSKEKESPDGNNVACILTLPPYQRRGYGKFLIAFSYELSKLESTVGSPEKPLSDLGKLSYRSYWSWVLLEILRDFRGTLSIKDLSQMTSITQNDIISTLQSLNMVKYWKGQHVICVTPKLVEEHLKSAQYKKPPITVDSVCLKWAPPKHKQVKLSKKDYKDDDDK
Assay: KAT-8 biochemical inhibition assay (SAMDI mass spectrometry)
Description: KAT-8. Enzyme assay buffer was 50 mM Tris pH 8.0, 0.002% Tween20, 0.005% bovine skin gelatin, and 1 mM dithiothreitol (DTT). For determination of IC50 values, compounds were serially diluted with 2% (v/v) DMSO in the final reaction, pre-incubating each dilution of each compound with 40 μL of assay buffer containing KAT-8 enzyme (12.5 nM final concentration). 10 μL of assay buffer containing 1 μM peptide substrate and 5 μM acetyl coenzyme A (final concentrations) was added. […]
measurement-type: IC50

Recorded results for 10 compounds are shown here.
# compound, IC50
data = [
    ("Cn1cnc(-c2cc(Cl)c(F)c(C(=O)NNS(=O)(=O)CC3CCCC(NC(=O)C4CCC4)C3)c2)c1 (stereo not drawn) [Compound I-218]", "10 to 50 µM"),
    ("CNC1CC(CS(=O)(=O)NNC(=O)c2cc(-c3cn(C)cn3)cc(Cl)c2F)C1 (stereo not drawn) [Compound I-395]", "> 100 µM"),
    ("Cn1cnc(-c2cc(Cl)c(F)c(C(=O)NNS(=O)(=O)c3cncs3)c2)c1 [Compound I-257]", "10 to 50 µM"),
    ("CNC1CCC(CS(=O)(=O)NNC(=O)c2cc(-c3cn(C)cn3)cc(Cl)c2F)CC1 (stereo not drawn) [Compound I-297]", "10 to 50 µM"),
    ("O=C(NNS(=O)(=O)CC1CCCCC1)c1cc(-n2cccn2)cc(Cl)c1F [Compound I-34]", "> 100 µM"),
    ("Cc1ccn(-c2cc(Cl)c(F)c(C(=O)NNS(=O)(=O)CC3CCOCC3)c2)n1 [Compound I-43]", "> 100 µM"),
    ("CN(C)C(=O)N[C@H]1CC[C@@H](CS(=O)(=O)NNC(=O)c2cc(-c3cn(C)cn3)cc(Cl)c2F)CC1 [Compound I-163]", "10 to 50 µM"),
    ("CCNC(=O)N[C@H]1CCC[C@@H](CS(=O)(=O)NNC(=O)c2cc(-c3cn(C)cn3)cc(Cl)c2F)C1 [Compound I-287]", "10 to 50 µM"),
    ("Cn1cnc(-c2cc(Cl)c(F)c(C(=O)NNS(=O)(=O)C3CC3)c2)c1 [Compound I-19]", "> 100 µM"),
    ("Cn1cnc(-c2cc(Cl)c(F)c(C(=O)NNS(=O)(=O)c3cccc(F)c3)c2)c1 [Compound I-320]", "10 to 50 µM"),
]

Supply recorded IC50 for Cc1nc(-c2cc(Cl)c(F)c(C(=O)NNS(=O)(=O)C3CCOCC3)c2)cn1C [Compound I-37] here.
> 100 µM

Please list IC50 recorded for the compound COCCC(=O)N1CCC(CS(=O)(=O)NNC(=O)c2cc(-c3cn(C)cn3)cc(Cl)c2F)C1 (stereo not drawn) [Compound I-56]
10 to 50 µM

Name the recorded IC50 of the item CCNC(=O)N1[C@H]2CC[C@H](CS(=O)(=O)NNC(=O)c3cc(-c4cn(C)cn4)cc(Cl)c3F)[C@@H]1CC2 [Compound I-265] in your answer.
10 to 50 µM

Complete the entry with IC50 for COc1ccc(CNC(=O)NC2CCC(CS(=O)(=O)NNC(=O)c3cc(-c4cn(C)cn4)cc(Cl)c3F)CC2)cc1 (stereo not drawn) [Compound I-177]
< 10 µM

Please report the measured IC50 for Cc1ncn(-c2cc(Cl)c(F)c(C(=O)NNS(=O)(=O)C3CCOCC3)c2)n1 [Compound I-77]
10 to 50 µM

---

Molecular target: KAT-5 (Homo sapiens (Human))
Test: KAT-5 biochemical inhibition assay (SAMDI mass spectrometry)
Details: Table 6, comparative compounds
Here the recorded IC50 is given for each entry.

Example results:
# molecule, IC50
data = [
    ("O=C(NNS(=O)(=O)CC1CCCNC1)c1cc(-c2ccccc2)cc(Cl)c1F (stereo not shown) [A, reference compound]", "10 to 50 µM"),
    ("Cc1cc(-c2ccccc2)cc(C(=O)NNS(=O)(=O)CC2CCCN(C(=O)OC(C)(C)C)C2)c1F (single isomer, unassigned) [B, reference compound]", "≤ 10 µM"),
    ("Cc1cc(-c2ccccc2)cc(C(=O)NNS(=O)(=O)CC2CCCNC2)c1F (stereo not shown) [D, reference compound]", "10 to 50 µM"),
]

Please turn your attention to the following entry.
For the molecule Cc1cc(-c2ccccc2)cc(C(=O)NNS(=O)(=O)CC2CCCN(C(=O)OC(C)(C)C)C2)c1F (single isomer, unassigned) [C, reference compound] , report IC50.
≤ 10 µM

---

Target: KAT-6A (Homo sapiens (Human), UniProt Q92794)
Sequence (Q92794 other isoform, or with tags, fused parts or gaps): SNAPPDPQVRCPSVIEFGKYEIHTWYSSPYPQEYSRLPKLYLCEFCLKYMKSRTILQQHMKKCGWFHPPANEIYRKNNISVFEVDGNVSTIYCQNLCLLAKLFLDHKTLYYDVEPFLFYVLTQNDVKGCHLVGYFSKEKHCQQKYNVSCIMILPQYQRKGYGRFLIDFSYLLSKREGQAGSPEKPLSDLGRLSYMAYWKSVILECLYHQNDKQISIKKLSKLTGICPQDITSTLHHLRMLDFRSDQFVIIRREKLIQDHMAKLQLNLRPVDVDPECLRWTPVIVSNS
Test: KAT-6A biochemical inhibition assay (SAMDI mass spectrometry)
Procedure: KAT-6A. Enzyme assay buffer was 50 mM Tris pH 8.0, 0.002% Tween20, 0.005% bovine skin gelatin, and 1 mM dithiothreitol (DTT). For determination of IC50 values, compounds were serially diluted with 2% (v/v) DMSO in the final reaction, pre-incubating each dilution of each compound with 40 μL of assay buffer containing KAT-6A enzyme (12.5 nM final concentration). 10 μL of assay buffer containing 1 μM peptide substrate and 1 μM acetyl coenzyme A (final concentrations) was added. […]
measurement-type: IC50

Examples from the recorded data:
# molecule, result
data = [
    ("Cn1cnc(-c2cc(Cl)c(F)c(C(=O)NNS(=O)(=O)CC3CN(S(C)(=O)=O)C3)c2)c1 [Compound I-220]", "10 to 50 µM"),
    ("COCC(=O)N1CCCC(CS(=O)(=O)NNC(=O)c2cc(-c3cn(CCO)cn3)cc(C)c2F)C1 (stereo not drawn) [Compound I-148]", "10 to 50 µM"),
    ("Cn1cnc(-c2cc(Cl)c(F)c(C(=O)NNS(=O)(=O)C[C@@H]3CCC[C@@H](N)C3)c2)c1 [Compound I-351]", "10 to 50 µM"),
    ("Cn1cnc(-c2cc(Cl)c(F)c(C(=O)NNS(=O)(=O)C[C@H]3CC[C@@H](NS(C)(=O)=O)CC3)c2)c1 [Compound I-248]", "< 10 µM"),
    ("Cn1cnc(-c2cc(Cl)c(F)c(C(=O)NNS(=O)(=O)CC3CN(S(=O)(=O)C4CCC4)C3)c2)c1 [Compound I-170]", "< 10 µM"),
]

Look up and state reported IC50 for Cn1cnc(-c2cc(Cl)c(F)c(C(=O)NNS(=O)(=O)CC3CCN(S(=O)(=O)C4CC4)C3)c2)c1 (stereo not drawn) [Compound I-84]
< 10 µM

Look up and state reported IC50 for Cc1nc(-c2cc(Cl)c(F)c(C(=O)NNS(=O)(=O)CC3CCOCC3)c2)co1 [Compound I-80]
< 10 µM

Identify the reported IC50 for the following entry. Cn1cnc(-c2cc(Cl)c(F)c(C(=O)NNS(=O)(=O)C[C@H]3CCC[C@@H](NC(=O)OC(C)(C)C)C3)c2)c1 [Compound I-252]
< 10 µM

Supply measured IC50 of COc1ccc(CNC(=O)N2CC(CS(=O)(=O)NNC(=O)c3cc(-c4cn(C)cn4)cc(Cl)c3F)C2)cc1 [Compound I-203] in your reply.
< 10 µM

Read off the recorded IC50 for CC(=O)Nc1cccc(S(=O)(=O)NNC(=O)c2cc(-c3cn(C)cn3)cc(Cl)c2F)c1 [Compound I-367]
< 10 µM

Give IC50 for the following molecule: CC(C)NC(=O)N1CC(CS(=O)(=O)NNC(=O)c2cc(-c3cn(C)cn3)cc(Cl)c2F)C1 [Compound I-204]
10 to 50 µM

Fill in reported IC50 for this entry: CC(=O)N1CCCC(CS(=O)(=O)NNC(=O)c2cc(-c3cn(C)cn3)cc(C)c2F)C1 (stereo not drawn) [Compound I-142]
< 10 µM

Let me know recorded IC50 for Cn1cnc(-c2cc(Cl)c(F)c(C(=O)NNS(=O)(=O)c3ccccc3)c2)c1 [Compound I-110] , thanks.
< 10 µM

Please give measured IC50 of the following entry: Cc1nn(C)c(C)c1-c1cc(Cl)c(F)c(C(=O)NNS(=O)(=O)CC2CCOCC2)c1 [Compound I-58]
> 100 µM

Identify measured IC50 associated with Cn1cnc(-c2cc(Cl)c(F)c(C(=O)NNS(=O)(=O)CC3CCC(NC(N)=O)C3)c2)c1 (stereo not drawn) [Compound I-340]
< 10 µM

The values you see were collected from patent US11685732B2.
